From: paper PMC10216364

- TESTED TARGET: RNA polymerase core enzyme;chimera sigma32-28 (E. coli;E. coli) (UniProt P0A7Z4+P0A8V2+P0A8T7+P0A800+P0AGB3)
- EXPERIMENTAL PROTOCOL: fluorescence polarization
- CONDITIONS USED: apparent Kd; FP: 10 mM Tris-HCl pH 7.7, 100 mM NaCl, 1 mM DTT, 1% glycerol, 0.025% Tween-20, 5 nM DNA, 10-320 nM holoenzyme, room temperature, 5 min; stopped-flow: 10 mM …
PARAMETER MEASURED: pKd
Expect pKd as a plain number equal to -log10 of the molar concentration.

Query: Returns the measured pKd for the input sequence. Input: CCTTGAAGACGTGGTTTACGACCCCATTTAGTAG / GGGGTCGTAAACCACGTCTTCAAGG [long promoter DNA, -35 to -10 bubble]
Reply: 8.04
